Across several studies, molecules have been characterized by their Ki on C-C chemokine receptor type 5 (Homo sapiens, UniProt P51681); a selection follows.
Sorting guide: entries reporting Ki beneath 5 nM go in the t pile, the rest go in the f pile.

{"molecule": "Cc1ncnc(C)c1C(=O)N1CCC(C)(N2CCC(/C(=N\\OCC(F)(F)F)c3ccc(Br)cc3)CC2)CC1", "class": "f"}

For CCO/N=C(/c1ccc(S(C)(=O)=O)cc1)C1CCN(C2(C)CCN(C(=O)c3c(C)cc[n+]([O-])c3C)CC2)CC1 , is the recorded Ki below the cut-off of 5 nM?
f

For CCO/N=C(/c1ccc(Br)cc1)C1CCN(C2(C)CCN(C(=O)c3c(C)nc(N)nc3C)CC2)CC1 , is the recorded Ki below the cut-off of 5 nM?
f

For Cc1cccc(C)c1C(=O)N1CCC(C)(N2CCC(/C(=N\OC(C)C)c3ccc(Br)cc3)CC2)CC1 , is the recorded Ki below the cut-off of 5 nM?
t

For CO/N=C(/c1ccc(Br)cc1)C1CCN(C2(C)CCN(C(=O)c3c(C)cccc3N)CC2)CC1 , is the recorded Ki below the cut-off of 5 nM?
t

For Cc1cccc(C)c1C(=O)N1CCC(C)(N2CCC(/C(=N\Oc3ccccc3)c3ccc(Br)cc3)CC2)CC1 , is the recorded Ki below the cut-off of 5 nM?
f

For CCO/N=C(\c1ccc(Br)cc1)C1CCN(C2(C)CCN(C(=O)c3c(C)cc[n+]([O-])c3C)CC2)CC1 , is the recorded Ki below the cut-off of 5 nM?
t

For CCO/N=C(/c1ccc(Br)cc1)C1CCN(C2(C)CCN(C(=O)c3c(C)nc(OC)nc3C)CC2)CC1 , is the recorded Ki below the cut-off of 5 nM?
f
